Recorded percent of control (POC) of FACS Geo Mean values for a group of binders are listed next.
# STUDY_SYSTEM: T1, mOrai1-hOrai1 ECL2 chimeric protein (human/mouse chimera, UniProt Q8BWG9 1-304 (mouse entry))
# T1 construct: mouse Orai1 with human ECL2; also called Ch
# T1 sequence (Q8BWG9 other isoform, or with tags, fused parts or gaps mutant): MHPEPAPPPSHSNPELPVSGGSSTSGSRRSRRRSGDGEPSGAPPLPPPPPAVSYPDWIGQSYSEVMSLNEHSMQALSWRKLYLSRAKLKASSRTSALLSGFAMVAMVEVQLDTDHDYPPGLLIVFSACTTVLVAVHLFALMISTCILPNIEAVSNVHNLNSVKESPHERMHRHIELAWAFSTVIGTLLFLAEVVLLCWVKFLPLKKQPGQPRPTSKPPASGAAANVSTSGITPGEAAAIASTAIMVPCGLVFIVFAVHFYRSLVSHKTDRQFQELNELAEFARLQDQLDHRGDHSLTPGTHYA
# EXPERIMENTAL_PROTOCOL: FACS, 293EBNA, RFI-POC grade
# Design: concentration or dose not given beside the values

| BINDER | VAL |
| --- | --- |
| mAb 5C1.1 (antibody, human IgG2, lambda, V domains shown, fully human IgG2 lambda, Campaign 2) VH: QVQLVQSGAEVKKPGASVKVSCKASGYTFTDYYMNWVRQAPGQGLEWMGWINPNSGGTKYAQKFQGRVTMTRDTSIRTAYMELSRLRSDDTAVYYCAREYGGNSDWFDPWGQGTLVTVSS VL: QSVLTQPPSVSGAPGQRVTISCTGSSSNIGAGYDVHWYQQLPGTAPKLLIYGNSNRPSGVPDRFSGSKSGTSASLAITGLQAEDEADYYCQSYDNRLSDSVVIGGGTKLAVQG | 40 to 100% |
| mAb 2D2.1 (antibody, human IgG2, lambda, V domains shown, fully human IgG2 lambda, Campaign 1; also called mAb 2D.1) VH: QVQLQQWGAGLLKPSETLSLTCAVYGGSFSGYYWSWIRQPPGKGLEWIGEIDHSGRINYNPALKSRLTISVDTSKNQFSLKLSSVTAADTAVYYCARAGSGGYEDWFDPWGQGTLVTVSS VL: QSVLTQPPSVSGAPGQRVTISCTGSSSNIGAGYNVHWYQQFPRTDPKLLIYVYNIRPSGVPDRFSGSRSGTSASLAITGLQTEDEADYYCQSYDSSLSGVVFGGGTKLTVLG | 40 to 100% |

query: Query: percent of control (POC) of FACS Geo Mean; subject: mAb 5A4.2 (antibody, human IgG2, lambda, V domains shown, fully human IgG2 lambda, Campaign 2) VH: QVQLVQSGAEVKKPGASVKVSCKASGYTFTDYYMNWVRQAPGQGLEWMGWINPNSGGTKYAQKFQGRVTMTRDTSIRTAYMELSRLRSDDTAVYYCSREYGGNSDWFDPWGQGTLVTVSS VL: QSVLTQPPSVSGAPGQRVTISCTGSSSNIGAGYDVHWYQQLPGTAPKLLIYGNSNRPSGVPDRFSGSKSGTSASLAITGLQAEDEADYYCQSYDNRLSDSVVIGGGTKLTVQG
result: 40 to 100%

Taken from patent US20120231006A1.
